Measured EC50 accompanies every entry in the list below.
Tested on: phospho-akt (Thr308) in PC-3 cells
Experiment: Inhibition of phospho-akt (Thr308) in PC-3 cells, MSD phospho-akt 308 ELISA kit
Format: cell-based
Conditions: Homo sapiens; inhibition of P308 Akt in PC-3 cells using MSD, 2 hours, no serum; read-out: EC50

For orientation, consider the following solved cases.
>>> result("C[C@H](NC(=O)c1nc(C#N)cnc1NCc1ccc(-c2cnc(N)c(OCCN)n2)cc1)c1ccc(F)c(F)c1 [Example 167]")
"< 1 µM"
>>> result("N#Cc1cnc(NCc2ccc(-c3c[nH]c4ncnc(N)c34)cc2)c(-c2ncco2)c1 [Example 43]")
"1 to 10 µM"

Task: Any idea what EC50 was measured for COC(=O)c1ccc(-c2ccc(CNc3ncc(C#N)cc3C(=O)N[C@@H](C)c3ccc(F)cc3)cc2)cn1 [Example 112] ?
Result: > 10 µM

Task: Recorded EC50 of NCCCc1nc(-c2ccc(CNc3ncc(C(F)(F)F)cc3C(=O)Nc3ccc(F)cc3)cc2)cnc1N [Example 73] , please.
Result: < 1 µM

Hello, the source for this data is patent US10030016B2, in case you need it.
